The compounds listed here are annotated with their Potency.
Experiment: qHTS Assay for Identifying Gametocytocidal Compounds (AID 743244); note: potency is the fitted concentration of half-maximal effect
Conditions: P. falciparum 3D7 stage III-V gametocytes, alamarBlue, 72 h
Inconclusive results are not listed. Activity calls are given as the source filed them. Calls come from the whole dose curve; as a rule, active = well fitted curve in the direction sought with a large enough effect; inconclusive = small, poorly fitted or top-dose-only effect, or another doubt; inactive = no such curve, though single readings can be large or run the other way.

[ask] Form field: reported Potency of O=c1[nH]nc(Sc2ncc([N+](=O)[O-])s2)n1-c1ccc2c(c1)OCCO2
[reply] 7.43 µM (active)

[ask] Another: Nc1nc(Nc2ccc(S(N)(=O)=O)cc2)nn1C(=O)c1c(F)cccc1F
[reply] 11.8 µM (active)

[ask] Another: C=CC(=O)Nc1cc2c(Nc3ccc(F)c(Cl)c3)ncnc2cc1C#CC(C)(C)N1CCN(C)CC1
[reply] 18.7 µM (active)

[ask] Another: Cn1cc(-c2[nH]c3cc(NC(=O)[C@H](N)C4CCCCC4)cc4c3c2C=NNC4=O)cn1
[reply] 23.5 µM (active)

[ask] Another: C=CCn1c(=O)c2cnc(Nc3ccc(N4CCN(C)CC4)cc3)nc2n1-c1cccc(C(C)(C)O)n1
[reply] 3.32 µM (active)

[ask] Another: Cc1ccc(-c2ncn(-c3ccc(Nc4nccc(-c5cccc(N6CCOCC6)c5)n4)cc3)n2)cn1
[reply] 11.8 µM (active)

[ask] Another: CC1(C)OC2=C(C(=O)c3ccccc3C2=O)[C@H](NCc2ccccc2)[C@H]1O
[reply] 0.743 µM (active)

[ask] Another: COc1cc2c(Oc3ccc4[nH]c(C)cc4c3F)ncnc2cc1OCCCN1CCCC1
[reply] 18.7 µM (active)

###

Experiment: Quantitative High-Throughput drug screen in 47 multiple myeloma cell lines against the NCATS MIPE library collection: Delta47_JCRB cell viability assay (AID 1918925; note: nearly all actives have a fitted effect of over 45% in size)
Settings: Delta47 myeloma viability, CellTiter-Glo ATP, 48 h; series mostly up to 45.8 µM
Results filed as inconclusive are left out. Calls of active or inactive are those of the source. Calls follow the shape of the dose curve; as a rule, active = well fitted cell-killing curve with a large enough effect; inconclusive = small, poorly fitted or top-dose-only effect, or effect the other way; inactive = no such curve, though single readings can be large or run the other way.
In this exercise, the only acceptable responses are active, inactive

Worked examples follow.
Cc1cn(-c2cc(NC(=O)c3ccc(C)c(Nc4nccc(-c5cccnc5)n4)c3)cc(C(F)(F)F)c2)cn1 inactive
COc1cc(Nc2ncc(F)c(Nc3ccc4c(n3)N(COP(=O)(O)O)C(=O)C(C)(C)O4)n2)cc(OC)c1OC active

[ask] Called result for C[C@@H](Oc1cc(-n2cnc3ccc(CN4CCN(C)CC4)cc32)sc1C(N)=O)c1ccccc1C(F)(F)F
[reply] active

[ask] Another: Cc1cn2c(-c3cn[nH]c3)cnc2c(Nc2ccc(C(=O)N3CCNCC3)cc2F)n1
[reply] active

[ask] Another: C=C1C(=CC=C2CCC[C@]3(C)[C@@H]([C@H](C)C=C[C@H](C)C(C)C)CC[C@@H]23)C[C@@H](O)C[C@@H]1O
[reply] active

[ask] Another: N#Cc1c(O)c2c(-c3ccc(-c4ccccc4O)cc3)csc2[nH]c1=O
[reply] inactive

[ask] Another: CNC(=O)c1cc(Oc2ccc(NC(=O)Nc3cc(C(C)(C)C)nn3-c3ccc4ncccc4c3)c(F)c2)ccn1
[reply] active

###

Experiment: qHTS of pediatric cancer cell lines to identify multiple opportunities for drug repurposing: Primary screen for Rh18 cells (AID 1347102); note: nearly all actives have a fitted effect of over 65% in size
Settings: Rh18 rhabdomyosarcoma viability, CellTiter-Glo luminescence, 48 h; series mostly up to 46 µM
Records with an inconclusive call do not appear. Activity calls are given as the source filed them. Calls come from the whole dose curve; as a rule, active = well fitted cell-killing curve with a large enough effect; inconclusive = small, poorly fitted or top-dose-only effect; inactive = flat fitted curve, though single readings scatter.
In this exercise, the only acceptable responses are True = active, False = inactive

[ask] Called result for COc1ccc(-c2cc3c(C)nc(N)nc3n(C3CCC(OCCO)CC3)c2=O)cn1 (centres undefined)
[reply] True

[ask] Another: CC1(C)O[C@@H]2C[C@@H]3[C@H]4C[C@@H](F)C5=CC(=O)C=C[C@]5(C)[C@@]4(F)[C@@H](O)C[C@]3(C)[C@]2(C(=O)CO)O1
[reply] False

[ask] Another: COCCOc1ccc2c(c1)ncn2-c1ccc2cccc(N3CCC(N)CC3)c2n1
[reply] True

[ask] Another: Nc1ccn([C@@H]2O[C@H](CO)[C@H](O)C2(F)F)c(=O)n1
[reply] False

[ask] Another: COc1c(N2C[C@@H]3CCCN[C@H]3C2)c(F)cc2c(=O)c(C(=O)O)cn(C3CC3)c12
[reply] False

[ask] Another: Cn1cncc1[C@@](N)(c1ccc(Cl)cc1)c1ccc2c(c1)c(-c1cccc(Cl)c1)cc(=O)n2C
[reply] True

[ask] Another: CC(C)CC(=O)Nc1n[nH]c2c1CN(C(=O)C1CCN(C)CC1)C2(C)C
[reply] False

###

Experiment: Quantitative High-Throughput drug screen in 47 multiple myeloma cell lines against the NCATS MIPE library collection: VP6_DJ cell viability assay (AID 1919867); note: nearly all actives have a fitted effect of over 40% in size
Conditions: ATP luminescence, 48 h; series mostly up to 45.8 µM
Results filed as inconclusive are left out. The source made the active and inactive calls. The call rests on the fitted dose curve; in most records, active means well fitted cell-killing curve with a large enough effect; inconclusive means small, poorly fitted or top-dose-only effect, or effect the other way; inactive means no such curve, though single readings can be large or run the other way.
In this exercise, the only acceptable responses are 1 (active), 0 (inactive)

COMPOUND	ASSIGNED_CLASS
OCc1ccc(-c2ccc(-c3ccc(CO)s3)o2)s1	1
Cc1ccc2nc(NC(=O)CSc3nc4c(c(=O)n3-c3ccccc3)SCC4)sc2c1	1
Cc1cn2c(-c3cn[nH]c3)cnc2c(Nc2ccc(C(=O)N3CCNCC3)cc2F)n1	1
CN1CCN(c2cc(C(=O)Nc3ccc4c(c3)-c3c(c(C(N)=O)nn3-c3ccc(F)cc3)CC4)c(Cl)cn2)CC1	1
CC(C)c1cc(-c2n[nH]c(=O)n2-c2ccc3c(ccn3C)c2)c(O)cc1O	1

[ask] Called result for O=C1CCC[C@@H]2[C@H]3CCC[N+]4([O-])CCC[C@@H](CN12)[C@@H]34 (stereo partly drawn)
[reply] 1

[ask] Another: COC(=O)Nc1nc2ccc(C(=O)c3ccc(F)cc3)cc2[nH]1
[reply] 1

[ask] Another: Cc1cc(C(=O)N2CCN(c3cccc(Cl)c3)CC2)n(-c2ccccc2)n1
[reply] 1

[ask] Another: CC(C)c1cnn2c(NCc3ccccc3)cc(N[C@@H](CO)[C@H](O)CO)nc12
[reply] 1

[ask] Another: c1cc(-c2cnn3cc(-c4ccc(OCCN5CCCCC5)cc4)cnc23)ccn1
[reply] 1

[ask] Another: O=c1[nH]nc(Sc2ncc([N+](=O)[O-])s2)n1-c1ccc2c(c1)OCCO2
[reply] 1

[ask] Another: CC[C@@H]1C(=O)N(C)c2cnc(Nc3ccc(C(=O)NC4CCN(C)CC4)cc3OC)nc2N1C1CCCC1
[reply] 1

[ask] Another: COc1cc2c(NC3CCN(C(C)C)CC3)nc(C3CCCCC3)nc2cc1OCCCN1CCCC1
[reply] 1

[ask] Another: Cc1cc(CN2CCN(c3c(Br)cnc4nc(-c5ccc(N6CCN(C)CC6)cc5)[nH]c34)CC2)no1
[reply] 1

[ask] Another: O=C(O)c1ccc2c(c1)nc(Nc1cccc(Cl)c1)c1ccncc12
[reply] 1

[ask] Another: CC(=O)c1c(C)c2cnc(Nc3ccc(N4CCNCC4)cn3)nc2n(C2CCCC2)c1=O
[reply] 1

[ask] Another: COc1cc2c(Oc3ccc4[nH]c(C)cc4c3F)ncnc2cc1OCCCN1CCCC1
[reply] 1

[ask] Another: COc1cc2ncn(-c3cc(OCc4ccccc4C(F)(F)F)c(C(N)=O)s3)c2cc1OC
[reply] 1

[ask] Another: C=CC(=O)Nc1cccc(Oc2nc(Nc3ccc(N4CCN(C)CC4)cc3)ncc2Cl)c1
[reply] 1

[ask] Another: COc1ccc(C=Cc2cc(OC)c(OC)c(OC)c2)cc1O
[reply] 0

###

The compounds listed here are annotated with their parasite growth, % of control (lower = inhibition).
Experiment: qHTS profiling of the MIPE4 collection as inhibitors of Plasmodium falciparum (DD2) proliferation (Rep 2) (AID 743346)
Conditions: P. falciparum Dd2 in erythrocytes, SYBR Green DNA, 72 h; at 28.5 µM (top of the series) unless noted
Write the answer as a number in %, unit excluded.

Check out these entries, answers already filled in.
COc1cc(C(=O)NS(=O)(=O)c2ccccc2C)ccc1Cc1cn(C)c2ccc(NC(=O)OC3CCCC3)cc12 16.7
Cn1cc(-c2ccncc2)c(-c2ccc(OCc3ccc4ccccc4n3)cc2)n1 82.2
CC(=O)SC[C@@H](C)C(=O)N1CCC[C@H]1C(=O)N[C@@H](Cc1ccccc1)C(=O)O 69.5
O=c1c2ccccc2nc2n1CCc1c-2[nH]c2ccccc12 167
COc1cc(Nc2ncc(F)c(Nc3ccc4c(n3)N(COP(=O)(O)O)C(=O)C(C)(C)O4)n2)cc(OC)c1OC 22.9
Cc1cc(Nc2cc(NC(=O)c3c(Cl)cccc3Cl)ccn2)nc(N)n1 10.1
Cc1ccc(-c2ncn(-c3ccc(Nc4nccc(-c5cccc(N6CCOCC6)c5)n4)cc3)n2)cn1 11.5
Cc1cc(Nc2cc(N3CCN(C)CC3)nc(Sc3ccc(NC(=O)C4CC4)cc3)n2)n[nH]1 22.4

Here is another compound to look at.
[ask] Form field: reported parasite growth, % of control (lower = inhibition) of CNC(=O)c1ccc(-c2cnc3ncc(Cc4ccc5ncccc5c4)n3n2)cc1F
[reply] 37.1
